Source: PubChem BioAssay (NCI)

Catalogue of growth values
Test system: DU-145 prostate
ASSAY: NCI-60 one-dose screen, 48 h (100 = growth as untreated, 0 = no growth, -100 = all killed)
CONDITION_LABEL: 10 µM unless noted
About 83,000 compounds went through this panel and 20% of them were active in at least one assay; those are over-represented in the sample as a whole.
# value in %; strip the unit string

Record CN1C(=O)NC(c2ccc3c(c2)OCO3)C=C1c1ccccc1 (stereo not given) . Reported growth: 94.7

Next:
Record `O=C1Nc2cc(-c3ccc(NS(=O)(=O)c4ccccc4)cc3)ccc2/C1=C/c1ccc[nH]1` . Reported growth: 31.8

Record N#CC1=C(N)Oc2c(ccc3ccccc23)C1c1ccccc1Cl (stereo not given) . Reported growth: 17.1

Record `COc1ccc2[nH]c(O)c(/C=c3/cc4c(c(-c5ccc(F)cc5)n3)=Nc3ccccc3-4)c2c1` . Reported growth: 76.6

Record `O=C(Nc1cccc(C(=O)N2CCc3ccc(Cl)cc32)c1)c1ccco1` . Reported growth: 67.8
